assay: viability loss with induced miR-34 in A549 – imaging, A549 dox-inducible miR-34, nuclei and caspase counts, primary screen (AID 1347080); settings: A549 miR-34 inducible, Hoechst nuclei count, 48 h; measured here: total cells without miR-34 induction
Kindly state cell count for each of the entries shown.
Output: the number by itself.

Inquiry: Provide cell count value for the following molecule: COc1cc(N=C(N)N=C(N)N)cc(OC)c1
Reply text: 9120

Inquiry: Using the record for Cc1nsc(NC(=O)NC2CCc3ccccc3C2)n1 (configuration not stated) , state its measured cell count.
Reply text: 3550

Inquiry: Write down cell count measured for item CCC(C)(C)c1nnc(NC(=O)NCc2ccco2)s1
Reply text: 9890

Inquiry: Provide one value: measured cell count of COc1ccc(C(=O)O)cc1
Reply text: 9620

Inquiry: Recall and state the measured cell count for Cc1ccc(CN2CCN(c3ncnc4sccc34)CC2=O)cc1 .
Reply text: 4610

Inquiry: Supply measured cell count of CC1(C)S[C@@H]2C(NC(=O)C(N)c3ccc(O)cc3)C(=O)N2C1C(=O)O (some centres not stated) in your reply.
Reply text: 10100

Inquiry: Recall and state the measured cell count for CC(C)(C)c1cn(C2CCN(C(=O)c3cnc4ccccc4n3)CC2)nn1 .
Reply text: 9080

Inquiry: Answer with the recorded cell count for the molecule listed here: FC(F)Oc1ccc(-c2nc3c(cnn3Cc3cccs3)[nH]2)cc1
Reply text: 7720

Inquiry: Tell me measured cell count for Cc1ccc(NC(=O)NCCSCc2ccc(CN(C)C)o2)cc1Cl please.
Reply text: 7520

Inquiry: State its cell count: CN1C(=O)CCC1c1cccnc1 (configuration not stated)
Reply text: 9950

Inquiry: Give me measured cell count, please, for this molecule: O=C(c1cccc(=O)[nH]1)N(Cc1cccnc1)Cc1ccc2c(c1)OCO2
Reply text: 9830

Inquiry: Give the value of cell count reported for the following: CN1CCCC1Cc1c[nH]c2ccc(CCS(=O)(=O)c3ccccc3)cc12 (configuration not stated)
Reply text: 9580

###

assay: viability loss with induced miR-34 in A549 – imaging, A549 dox-inducible miR-34, nuclei and caspase counts, primary screen (AID 1347080); details: A549 miR-34 inducible, Hoechst nuclei count, 48 h; measured here: total cells with miR-34 induction; stronger effect = lower value
Where a SMILES comes first, the peptide text is derived from it. The star is where a group is joined. Cbz = O=C(OCc1ccccc1)*; CH2F = FC*
# t = cell count below 6000 (exclusive); f = cell count at/above 6000

Inquiry: Field: below-cutoff. Rule: recorded cell count strictly less than 6000. Subject: CCN1CC(C)n2c(c(O)c3c(=O)n(Cc4ccc(F)c(Cl)c4)nc(C(=O)NC)c32)C1=O (centres undefined)
Reply text: f

Inquiry: Say whether its cell count is strictly beneath 6000. Entry: c1ccc(CN2CCC(Nc3ncnc4sccc34)CC2)nc1
Reply text: t

Inquiry: Find out if reported cell count for CCOC(=O)c1cnc2ccc(-c3cncc(NS(=O)(=O)c4ccccc4)c3)cn12 is less than 6000
Reply text: t

Inquiry: In the record for CCOC(=O)c1ccc(NC2CCCCC2)c(N)c1 , is cell count less than 6000?
Reply text: f

Inquiry: Dear colleague, could you confirm whether cell count of Cc1cc(C)c(-c2csc(NC(=O)c3ccccc3)n2)c(C)c1 falls below 6000? Thanks.
Reply text: t

Inquiry: For this molecule, is cell count lower than 6000? Cc1cc(Cn2cnc3c2CC(C(=O)O)N(C(=O)C(c2ccccc2)c2ccccc2)C3)ccc1N(C)C (centres undefined)
Reply text: f

Inquiry: In plain terms, does Cc1nc2cc(C(=O)N(C)Cc3cc(-c4cccnc4)no3)ccc2s1 come in under 6000 for cell count?
Reply text: f

Inquiry: Hello, is cell count of the following molecule strictly smaller than 6000? CCOC(=O)c1ccc(N2NC(=O)C(=Cc3ccc([N+](=O)[O-])o3)C2=O)cc1
Reply text: f

Inquiry: is_below(cell count, 6000) for COC(=O)CC(NC(=O)C(C)NC(=O)C(NC(=O)OCc1ccccc1)C(C)C)C(=O)CF (stereo not drawn) (Cbz-Val-Ala-Asp(OMe)-CH2F; configuration not given here) ?
Reply text: f

###

assay: RCMB18 cell growth, single agent and combined, cisplatin and BGB IC40 combos (AID 1671462); conditions: RCMB18 medulloblastoma cells, cisplatin combo, at 5 µM, stronger effect = higher value;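 further: cells exposed to compound for four days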
Reported Endpoint: inhibition
Include the unit right after the number.

Inquiry: Using the record for C[C@H](NC(=O)c1ccccc1N=Cc1c(O)ccc2ccccc12)c1ccccc1 , state its measured inhibition.
Reply text: -10.8%

Inquiry: Please list inhibition recorded for the molecule CC1CN(c2c(F)c(N)c3c(=O)c(C(=O)O)cn(C4CC4)c3c2F)CC(C)N1 (stereo unspecified)
Reply text: 2%

Inquiry: State its inhibition for this molecule: NC(=O)c1cccc2[nH]c(-c3ccc(C4CCCN4)cc3F)nc12 (stereo unspecified)
Reply text: 55.7%

Inquiry: Specify measured inhibition for C[C@@H]1O[C@@H](O[C@@H]2[C@@H](O)[C@H](OCCc3ccc(O)c(O)c3)O[C@H](CO)[C@H]2OC(=O)C=Cc2ccc(O)c(O)c2)[C@H](O)[C@H](O)[C@H]1O .
Reply text: 8.1%

Inquiry: Report measured inhibition; entry is CCC(Sc1nnc2c3ccccc3n(CC)c2n1)C(=O)Nc1ccccc1OC (stereo unspecified)
Reply text: -1.17%

Inquiry: Please list inhibition recorded for the molecule O=C1N=c2ccccc2=C1c1c(O)[nH]c2ccccc12
Reply text: 103%

Inquiry: State its inhibition for this molecule: Cn1cc(-c2cnn3c(N)c(Br)c([C@H]4CCCNC4)nc23)cn1
Reply text: 22.7%

Inquiry: Give the reported inhibition for this molecule. Cc1cn(C2C=CC(CO)O2)c(=O)[nH]c1=O (stereo unspecified)
Reply text: -44.1%

Inquiry: Supply recorded inhibition for NC(=S)NN=Cc1ncccc1N here.
Reply text: 15.6%

Inquiry: Output measured inhibition for this item: C=C1C(=O)O[C@@H]2C=C(C)CCC=C(C)CC[C@@H]12
Reply text: 75.6%

Inquiry: Return the recorded inhibition value; entry: CC(C)c1ccc(-c2cc(=O)c3ccccc3o2)cc1
Reply text: 35.3%

###

experiment: galactose survival enhancers in mitochondrial complex I cybrids – cell-based, galactose medium, ATP luminescence, primary screen (AID 1645843); settings: complex I mutant cybrid cells, 72 h;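 further: positive z means more ATP and so rescue of galactose-driven cybrid death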
Activity calls are given as the source filed them.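 Rule for the calls: active = z-score of at least 1.8 in each of two replicates, scored against plate mean and spread of sample wells; inactive = the rest.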
Answer with one of the outcomes given here: t for active, f for inactive

Inquiry: Hi, do you know how Cc1cc(-c2ccccc2C(F)(F)F)nc(N)n1 came out in this test?
Reply text: f

Inquiry: Query: recorded result category for CCc1cc(-c2cccc(C)c2C)nc(N(C)C)n1 in this test
Reply text: f

Inquiry: Just curious, what result did Cc1csc(CNc2nccc(-c3cnn(-c4ccccc4)c3)n2)n1 get here?
Reply text: f

Inquiry: Per the assay record, what outcome was assigned to O=C(O)CCCCCNC(=O)NC1CCCCC1 ?
Reply text: f

Inquiry: How was Cc1nn(C)c(C)c1-c1ccnc(N(C)Cc2cc(-c3ccccn3)no2)n1 classified in this test?
Reply text: f

Inquiry: Check the results log: what was the call for CC1C(=O)N(C)C(=O)c2nc[nH]c21 (configuration not stated) ?
Reply text: f

Inquiry: What did this assay record as the result for Clc1nccc2c1ccc1ccccc12 ?
Reply text: f

Inquiry: Outcome logged for O=C1CN(c2ncnc3sccc23)CCN1Cc1ccc(F)cc1 in this assay:
Reply text: f

Inquiry: What was the test verdict on Cc1cnc(NCCCn2ncc3ccccc32)nc1-c1cnn(C)c1 ?
Reply text: f

Inquiry: Which outcome was entered for the molecule CN(C)CCCc1cc(C(=O)Nc2ccc(-c3ccncc3)cc2)ccc1O in this test?
Reply text: f

Inquiry: Entry NO : call = ?
Reply text: f

Inquiry: Field: outcome | Entry: CCCC[C@@]1(C2CCCC2)Cc2cc(OCC(=O)O)c(Cl)c(Cl)c2C1=O
Reply text: t

###

assay: MELAS cybrid and Rieske KO viability enhancers – cell-based, MELAS cybrids, Rieske KO mouse fibroblasts, CellTiter-Glo, primary screen (AID 1508586); conditions: Rieske KO mouse fibroblast survival, low glucose, CellTiter-Glo 72 h;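 further: z relative to plate mean and SD of compound and empty wells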
Reported Endpoint: z-score
// no unit, no text: just the number

Inquiry: Quote z-score reported for CCn1cc(CN2CCN3C(=O)[C@@H]4C[C@@H](O)CN4C(=O)[C@H]3C2)c(C)n1 please.
Reply text: -0.193

Inquiry: Look up and report measured z-score for this entry: COc1cc(/C=C/CN2CC(=O)N(C(C)C)CC(OCc3noc(C)n3)C2)ccc1O (stereo not given)
Reply text: -0.562

Inquiry: Give the reported value of z-score for this record: O=c1ccn2c(n1)OC1C(O)C(CO)OC12 (stereo not given)
Reply text: -0.112

Inquiry: Let me know recorded z-score for CC(C)CCN1C(=O)N(CCN(C)C)C(=O)C12CCN(Cc1cn(C)c3ccccc13)CC2 , thanks.
Reply text: -0.689

Inquiry: Entry O=C(Nc1ccc(I)cc1)NC1CCCCC1 needs its z-score filled in; supply it.
Reply text: -0.338

Inquiry: Output measured z-score for this item: COc1ccccc1S(=O)(=O)Nc1ccc2c(c1)CN(C)C(=O)N2
Reply text: -0.445

Inquiry: Answer with the recorded z-score of C[C@]12C[C@@]3(O)O[C@@H](O1)[C@]1(COC(=O)c4ccccc4)[C@H]3C[C@@]12OC1OC(CO)C(O)C(O)C1O (stereo not given in full) only.
Reply text: -0.113

Inquiry: // Input: Cc1cc(Nc2cc(N3CCN(C)CC3)nc(C=Cc3ccccc3)n2)n[nH]1 . Output its z-score only.
Reply text: -2.06

Inquiry: Report measured z-score; entry is O=C(O)c1ccc(-c2ccccc2[N+](=O)[O-])o1
Reply text: -0.463

Inquiry: Please report z-score for the following compound: O=C(NCCn1cncn1)c1cc(-c2ccccc2)cc(S(=O)(=O)N2CCSCC2)c1
Reply text: 0.272
